Experimental protocol: folding stability dG unfold from chymotrypsin proteolysis; higher = more stable
Reported property: folding stability dG unfold (kcal/mol)

INSERT INTO measurements (seq_string, reported_property, obs_value) VALUES
  ('SAGGSAGGKIRVEVEVEPLPGPEEGGRLLRVRVRVYNENGELLEEIEFPARSPEEAEERLRKAASAGGSAGG [r6_974_TrMRF]', 'folding stability dG unfold', 3.46),
  ('SAGGSAGGSAGGMRTFPSESLETLPENGLRKKTLTVTYVPPDNPERSYVETEVEIIPSEVSAGGSAGGSAGG [r17_241_JUSTAS]', 'folding stability dG unfold', -1.03),
  ('SAGGSAGGSAGEVEFELTVKLTVTHPSGGKSEIEVPVKITLPVVDISKEILESNPEVVKKANSAGGSAGGSA [r18_114_TrMRF]', 'folding stability dG unfold', -0.964),
  ('SMVVLPVRYPDLSPEEARAAVEALAAEIEAAVGAEVRVEVEVERAPDGTPVRVLVTATVVIRTAADALLLSA [r9_21_JUSTAS]', 'folding stability dG unfold', 1.16),
  ('SAGGSAGGSAGAPTVKLTFTVTRTETKTETLPDGTTKTETKTETRTVTLTLAPGETITVTSAGGSAGGSAGG [r11_174_TrROS_Hall]', 'folding stability dG unfold', 4.27),
  ('SAGGSAGGKIIINGKEIEPGETITLPNGLKLEVVDGKIKLVVRDEETGEEKEITLSAEELKKLLSAGGSAGG [r6_940_TrROS_Hall]', 'folding stability dG unfold', 3.26),
  ('SAGGSAGGSKPVLKITVTNEKGEKQTISLDELQAETGLSAEEIAARLAALLPPGAKITIEPVPSAGGSAGGS [r12_399_TrROS_Hall]', 'folding stability dG unfold', 2.11),
  ('SIINALREALKDGKPGQEIPIMMPPDGMGELMNWLQDYGFKPKKMEPMPMNNRPMYTHEFTIDPKNGKFRSA [r9_498_TrROS]', 'folding stability dG unfold', 0.26),
  ('SAGGSASPVLTTVTFPGSPEELEAYAAEVRAAGTLLSVSFSPSPDPSYYTITLQVRAPDGTYFTAESAGGSA [r15_177_JUSTAS]', 'folding stability dG unfold', 1.55),
  ('SAGGSAMEIDIDPEKNEIRIYNPWNGQPHPFTIESIEPIDPDNKYFKFKIKYPDTGKEMPFMVQIDSAGGSA [r15_209_TrROS]', 'folding stability dG unfold', 1.4),
  ('SAGGSAMKITLKTKDGKEIEIEVEEKTNENGEKYLVLKIKDKKTNKEYTIVMSKEELEELLKKLLSSAGGSA [r15_92_TrROS_Hall]', 'folding stability dG unfold', 5.48),
  ('SAGGEVKPGEEVEVEVLVLVRGEDGELYLVRVKMRFRVKEDGTVEMEVEVEVVRVPLSEEELKALLEASAGG [r13_544_TrROS_Hall]', 'folding stability dG unfold', 5.99),
  ('SAGGSAGPALEIAKALTELYGAEEVTILDVHPDGYVHLHVRAVDYDDGEPVERELDVIFPIAPDDGSAGGSA [r15_646_TrMRF]', 'folding stability dG unfold', 1.52),
  ('SAGGMTEELEITTPDNYKIKITKTLNPNTTKPTYTVKIYEKKSGKVLLEKEFSSLEEAEEFIKNGYGSAGGS [r8_450_TrMRF]', 'folding stability dG unfold', 4.6);

###

Experimental protocol: folding stability dG unfold from trypsin proteolysis; higher = more stable
Examples of sequences with documented folding stability dG unfold follow.
Reported property: folding stability dG unfold (kcal/mol)

INSERT INTO assay_data (seq_string, reported_property, obs_value) VALUES
  ('SAGGSAGGSAGGSSIRIWIFFPGYFFRITIKPDPGNPNMIKIDITEIIPPDQMDDEDLISAGGSAGGSAGGS [r4_316_TrROS]', 'folding stability dG unfold', 3.53),
  ('SAGGSAGGSAPIKITEHTYNPGDGMVWATAEAEDPNGWKIKLTIWFFPDGNIQIEITEIVPSAGGSAGGSAG [r3_7_TrROS]', 'folding stability dG unfold', 2.45),
  ('SAGMYLVKITVTNEDGEKKEITVLVEAETEEEAREAAEELARELAEKYPEKIVEVKVEVVKLPPEVEPSAGG [r19_335_TrROS_Hall]', 'folding stability dG unfold', 4.12),
  ('SALLVAPDGTVVKPETIKTTVETFTTYFLPPGKPVTRKGVKEYTVTVTTTTYTTPNPTLTVETTVTTVGSAG [r14_291_JUSTAS]', 'folding stability dG unfold', -0.0458);

###

Experimental protocol: folding stability dG unfold from chymotrypsin proteolysis; higher = more stable
Listed sequences paired with reported folding stability dG unfold
Reported property: folding stability dG unfold (kcal/mol)

INSERT INTO results (seq_string, reported_property, obs_value) VALUES
  ('SAGGSAKIEIERIEPRPVLVPRPDGSLVPVPEVEVELRIEGDPEKMEEEERKKIEALAEEIAKELGSAGGSA [r2_40_TrMRF]', 'folding stability dG unfold', 0.736),
  ('SAGGLAPVYKTEDGVYLITPYNPETGELLETIPISEEDIEELSKEYGRDLTIEEIVKKLGYETEITVASAGG [r13_836_TrMRF]', 'folding stability dG unfold', 0.99),
  ('SAGGSAGGSGYLSQERPVTIKLPNGEVVEVDGVVRESPESDVVTVEIPETGQTIEVPKANVVESAGGSAGGS [r12_772_JUSTAS]', 'folding stability dG unfold', -0.035),
  ('SAGGSAGGSFKDVPPGLKPLREEENVLFYQLPDGSYLVLVKEGDKIKKIKASKSTSIEEAIKKSAGGSAGGS [r12_605_JUSTAS]', 'folding stability dG unfold', 2.09),
  ('SAGGMKTSAEELVERLKKELEAKGLKPKEVKKLPDGSLLVEFEEDVVVYIDAKTGTVTVLTPEEYEKLSAGG [r13_717_JUSTAS]', 'folding stability dG unfold', 2.68),
  ('SAGGSAGGSELPEGVEVETEPIAEIEITDEDGRKYKISIEAVKIRGPDGKEFLVISVSIEELPSAGGSAGGS [r12_544_TrROS_Hall]', 'folding stability dG unfold', 4.16),
  ('SAGGSAGGKEKLIVKIKIEKKVKLENGEEKKVKKTIVVEMTPEEVKELLKKLKKENVTEVEIFPSAGGSAGG [r6_984_TrROS_Hall]', 'folding stability dG unfold', 2.51),
  ('SAGKEKEIAEAIEEFLKEKGYDVKVKLIKVNPNNPNLSKVVLEVEVLGYLPDKKPLGKKRFKLVILGGSAGG [r19_418_TrMRF]', 'folding stability dG unfold', 2.72),
  ('SAGGSAGGSAGPRIVAFNVPNGKTIPLFAPDGWMIRINIERDPKDGEHKMETEYVPADDISAGGSAGGSAGG [r17_287_TrROS]', 'folding stability dG unfold', -0.276),
  ('SAGGKPKITITIEKLPDGTIRITITYEDGSKVEIEAKVTYDPKTNTLTIEVTIKINGKTYKITITFKSAGGS [r16_391_TrROS_Hall]', 'folding stability dG unfold', 4.4),
  ('SAGGPLEVTLVESETTFLPEGKVVTREVTRLPDDTILVTTYTTTIDPNSGTTTTTSETVVLPAGAALSAGGS [r16_639_JUSTAS]', 'folding stability dG unfold', 0.627),
  ('SAGGSAGGMKITVEEDPATNRLTITIEVDGHTVTIVYDKDNPNKITVTVSPNMTKDEILKALKSSAGGSAGG [r6_195_TrROS_Hall]', 'folding stability dG unfold', 2.43),
  ('SAGGSVKQIALRIARDMGYPNVKVEEIPIEKTPNGWVQIPITVEHPKDGKPIGPFQIHIRPGDPIVSAGGSA [r2_137_TrROS]', 'folding stability dG unfold', 0.602),
  ('SAGGEGEILDKKEFTFPDNVKLEVYVFKVGDKYFVKVKTTITVPENPTKPKKPLKKITPEDIKKALEKSAGG [r13_760_TrMRF]', 'folding stability dG unfold', 1.88);

###

Experimental protocol: folding stability dG unfold from trypsin proteolysis; higher = more stable
Reported property: folding stability dG unfold (kcal/mol)

INSERT INTO assay_data (seq_string, obs_value) VALUES
  ('SAGGSAGGSAGGNYFMMVVLEIRLPPELKGMSPEEWLKKNGYEVTEIEIKGIYPFPPPDGSAGGSAGGSAGG [r7_62_TrROS]', 2.02),
  ('SAGGSAGGSDLPIKIKMEPIPPGMPPGQVYRMEIEIPNGWVIRYSFYFTGGKLEFEPMEIKPVSAGGSAGGS [r12_1049_TrROS]', 2.22),
  ('SAGMVLEYEGVDEEEKLLARAEELRAELRARHPRVRVELEVEVKPTPGNKYRYRVTLTIEPLAPDEARASAG [r5_936_JUSTAS]', 1.75),
  ('SMKPGEVKELTLKLTIPVKPGEITVTLVLKLEDGRYVVVESRATVKEDGTIEIEVKIRVYDPKTNEWKELSA [r9_349_TrROS_Hall]', 2.37);
